# Test system: Rattus norvegicus
# Assay Overview: Hypolipidemic activity was measured as reduction in rat serum triglyceride after oral administration in male Wistar rats at 100 mg / (kg day)
# Format: functional
Reported Reduction values for the following molecules.
Output spec: scalar in %, unitless text.

Consider the reported Reduction for these molecules:
Molecule	Unit Label	Reduction
Cc1noc(C)c1C(c1ccc(C(C)C)cc1)N1CCN(C)CC1 (stereo unspecified)	%	66
Cc1ccccc1C(c1c(C)noc1C)N1CCNCC1 (stereo unspecified)	%	80
Cc1ccccc1C(c1nccn1C)N1CCN(C)CC1 (stereo unspecified)	%	29
Cc1noc(C)c1C(=C1CCNCC1)c1ccc(C(C)C)cc1	%	89
CC(C)c1ccc(C(c2ccns2)N2CCNCC2)cc1 (stereo unspecified)	%	90

Then there is this molecule:
Query: So what's the measured Reduction for this one? Cc1cc(C(c2ccc(Oc3ccccc3)cc2)N2CCN(C)CC2)sn1 (stereo unspecified)
Result: 59

* * *

# System: Rattus norvegicus
# Assay Overview: Hypolipidemic activity was measured as reduction in rat serum cholesterol after oral administration in male Wistar rats at 100 mg / (kg day)
# Format: functional
Value Type: Reduction (%)
Output spec: scalar in %, unitless text.

Consider the reported Reduction for these compounds:
Compound	Assayed System	Unit Label	Reduction
Cc1cc(C(Nc2cccnc2)c2ccc(C(C)C)cc2)sn1 (stereo unspecified)	Rattus norvegicus	%	16
CCc1ccc(C(c2ccns2)N2CCN(C)CC2)cc1 (stereo unspecified)	Rattus norvegicus	%	32
Cc1cc(C(c2ccc(F)cc2)N2CCN(C)CC2)sn1 (stereo unspecified)	Rattus norvegicus	%	11
Cc1cc(C(c2ccc(OCc3ccccc3)cc2)N2CCN(C)CC2)sn1 (stereo unspecified)	Rattus norvegicus	%	11
Cc1cc(C(c2ccc(C(C)C)cc2)N2CCN(S(C)(=O)=O)CC2)sn1 (stereo unspecified)	Rattus norvegicus	%	19

Query: So what's the measured Reduction for this one? Cc1cc(C(c2ccc(C(C)C)cc2)N2CC(C)NC(C)C2)sn1 (stereo unspecified)
Result: 16

Query: So what's the measured Reduction for this one? Cc1cc(C(c2cccc([N+](=O)[O-])c2)N2CCN(C)CC2)sn1 (stereo unspecified)
Result: 2

Query: So what's the measured Reduction for this one? Cc1noc(C)c1C(c1ccc(C(C)C)cc1)N1CC[N+](C)(C)CC1 (stereo unspecified)
Result: 1

Query: So what's the measured Reduction for this one? Cc1cc(C(OCCN2CCCC2)c2ccc(C(C)C)cc2)sn1 (stereo unspecified)
Result: 30

Query: So what's the measured Reduction for this one? Cc1cc(C(c2ccc(C)c(C)c2)N2CCN(C)CC2)sn1 (stereo unspecified)
Result: 11

Query: So what's the measured Reduction for this one? CCOC(=O)N1CCN(C(c2ccc(C(C)C)cc2)c2cc(C)ns2)CC1 (stereo unspecified)
Result: 10

* * *

# Tested on: Rattus norvegicus
# Assay Overview: Hypolipidemic activity was measured as reduction in rat serum triglyceride after oral administration in male Wistar rats at 100 mg / (kg day)
# Assay type: functional
Quick rule: Reduction of at least 30% means 1 (yes), below that means 0 (no).

Molecule	Label Class
Cc1cnsc1C(c1ccc(C(C)C)cc1)N1CCNCC1 (configuration not stated)	1 (yes)
Cc1cc(C(c2ccc(C)c(C)c2)N2CCN(C)CC2)sn1 (configuration not stated)	0 (no)
Cc1cc(C(c2ccc(OCc3ccccc3)cc2)N2CCN(C)CC2)sn1 (configuration not stated)	1 (yes)

Query: Please check the record COc1ccccc1C(c1ccns1)N1CCN(C)CC1 (configuration not stated) and state if its Reduction is at or above 30%.
Result: 0 (no)

Query: Please check the record Cc1cc(C(c2ccc(OC(C)C)cc2)N2CCN(C)CC2)sn1 (configuration not stated) and state if its Reduction is at or above 30%.
Result: 1 (yes)

Query: Please check the record CN1CCN(C(c2ccc(Cl)cc2)c2ccns2)CC1 (configuration not stated) and state if its Reduction is at or above 30%.
Result: 1 (yes)

Query: Please check the record Cc1ccccc1C(c1sncc1C)N1CCN(C)CC1 (configuration not stated) and state if its Reduction is at or above 30%.
Result: 1 (yes)

Query: Please check the record Cc1cc(C(O)(c2ccc(C(C)C)cc2)C2CCN(C)CC2)sn1 (configuration not stated) and state if its Reduction is at or above 30%.
Result: 1 (yes)

* * *

# Test system: Rattus norvegicus
# Assay Overview: Hypolipidemic activity was measured as reduction in rat serum cholesterol after oral administration in male Wistar rats at 100 mg/(kg day)
# Assay type: functional
Quick rule: Reduction of at least 70% means MET, below that means NOT MET.

Worked set:
Compound	Label Class
Cc1ccccc1C(c1c(C)noc1C)N1CCN(C)CC1 (stereo not given)	MET
Cc1ccccc1C(c1c(C)noc1C)N1CCNCC1 (stereo not given)	MET
CCCCOc1ccccc1C(c1cc(C)ns1)N1CCN(C)CC1 (stereo not given)	MET
Cc1noc(C)c1C(OC1CCNCC1)c1ccc(C(C)C)cc1 (stereo not given)	NOT MET
Cc1cc(C(c2ccc(C3CCCCC3)cc2)N2CCN(C)CC2)sn1 (stereo not given)	NOT MET
Cc1cc(C(=C2CCN(C)CC2)c2ccc(C(C)C)cc2)sn1	MET
CN1CCN(C(c2ccc(Cl)cc2)c2ccns2)CC1 (stereo not given)	NOT MET
CCc1ccccc1C(c1cc(C)ns1)N1CCN(C)CC1 (stereo not given)	MET

Query: Please check the record Cc1cc(C(OCCN(C)C)c2ccc(C(C)C)cc2)sn1 (stereo not given) and state if its Reduction is at or above 70%.
Result: NOT MET

* * *

# System: Rattus norvegicus
# Assay Overview: Hypolipidemic activity was measured as reduction in rat serum cholesterol after oral administration in male Wistar rats at 3 mg / (kg day)
# Type: functional
Output 1.0 for records whose Reduction is lower than 20%, 0.0 for records at or above 20%.

Query: I'd appreciate it if you could check whether Cc1cc(C(c2ccc(C(C)C)cc2)N2CCN(C)CC2)sn1 (centres undefined) has Reduction smaller than 20%.
Result: 1.0

Query: I'd appreciate it if you could check whether Cc1noc(C)c1C(c1ccc(C(C)C)cc1)N1CCN(CCO)CC1 (centres undefined) has Reduction smaller than 20%.
Result: 0.0

Query: I'd appreciate it if you could check whether Cc1noc(C)c1C(=C1CCN(C)CC1)c1ccc(C(C)C)cc1 has Reduction smaller than 20%.
Result: 0.0

Query: I'd appreciate it if you could check whether Cc1cnsc1C(c1ccc(C(C)C)cc1)N1CCN(CCO)CC1 (centres undefined) has Reduction smaller than 20%.
Result: 0.0

Query: I'd appreciate it if you could check whether Cc1cc(C(c2ccc(C(C)C)cc2)N2CCNCC2)sn1 (stereo in doubt; 33) has Reduction smaller than 20%.
Result: 1.0

Query: I'd appreciate it if you could check whether Cc1cnsc1C(c1ccc(C(C)C)cc1)N1CCNCC1 (centres undefined) has Reduction smaller than 20%.
Result: 0.0

* * *

# Test system: Rattus norvegicus
# Assay Overview: Hypolipidemic activity was measured as reduction in rat serum triglyceride after oral administration in male Wistar rats at 100 mg / (kg day)
# Format: functional
Reported Reduction values for the following compounds.

Query: So what's the measured Reduction for this one? Cc1noc(C)c1C(c1ccccc1Cl)N1CCNCC1 (centres undefined)
Result: 97%

Query: So what's the measured Reduction for this one? Cc1cc(C(c2cccc(Cl)c2)N2CCN(C)CC2)sn1 (centres undefined)
Result: 41%

Query: So what's the measured Reduction for this one? Cc1cc(C(=C2CCN(C)CC2)c2ccc(C(C)C)cc2)sn1
Result: 96%

* * *

# Tested on: Rattus norvegicus
# Assay Overview: Hypolipidemic activity was measured as reduction in rat serum triglyceride after oral administration in male Wistar rats at 1 mg / (kg day)
# Format: functional
Value Type: Reduction (%)
Output spec: scalar in %, unitless text.

Compound	Assayed System	Reduction [%]
Cc1cnsc1C(c1ccc(C(C)C)cc1)N1CCN(CCO)CC1 (stereo not drawn)	Rattus norvegicus	3

Query: Observed Reduction on Rattus norvegicus for Cc1noc(C)c1C(=C1CCNCC1)c1ccc(C(C)C)cc1 , please.
Result: 41

Query: Observed Reduction on Rattus norvegicus for Cc1noc(C)c1C(=C1CCN(C)CC1)c1ccc(C(C)C)cc1 , please.
Result: 13

Query: Observed Reduction on Rattus norvegicus for Cc1cnsc1C(c1ccc(C(C)C)cc1)N1CCNCC1 (stereo not drawn) , please.
Result: 15

Query: Observed Reduction on Rattus norvegicus for CC(C)c1ccc(C(c2ccns2)N2CCNCC2)cc1 (stereo not drawn) , please.
Result: 24

* * *

# Tested on: Rattus norvegicus
# Assay Overview: Hypolipidemic activity was measured as reduction in rat serum triglyceride after oral administration in male Wistar rats at 100 mg / (kg day)
# Type: functional
Value Type: Reduction (%)
Output spec: scalar in %, unitless text.

Consider the reported Reduction for these compounds:
Compound	Unit Label	Reduction
Cc1noc(C)c1C(c1ccc(C(C)C)cc1)N1CCNCC1 (stereo unspecified)	%	96
Cc1cc(C(c2ccc(C(C)(C)C)cc2)N2CCN(C)CC2)sn1 (stereo unspecified)	%	20
Cc1cccc(C(c2cc(C)ns2)N2CCN(C)CC2)c1 (stereo unspecified)	%	22

Then there is this compound:
Query: So what's the measured Reduction for this one? Cc1cc(C(c2ccc(C(C)C)cc2)N2CCOCC2)sn1 (stereo unspecified)
Result: 10
